tested on: MDR1; assay: in vitro; type: in vitro ADME; conditions: dog, MDCK-MDR1
QUANTITY_NAME: Papp A→B at 60 min, 10 μM (×10⁻⁶ cm/s)

- COMPOUND: "CCS(=O)(=O)N1CCC(n2c(CN3C(=O)C4(CC4)c4ccc(F)cc43)nc3cc(Cl)ccc32)CC1 [Compound 35]"
  RESULT: 12.7
- COMPOUND: "CS(=O)(=O)N1CCC(n2c(CN3C(=O)C4(CC4)c4ccc(F)cc43)nc3cc(Cl)ccc32)CC1 [Compound 33]"
  RESULT: 12.4
- COMPOUND: "CS(=O)(=O)C1CCN(CCCn2c(CN3C(=O)C4(CC4)c4ccc(F)cc43)nc3cc(Cl)ccc32)C1 (stereo not shown) [Compound 14]"
  RESULT: 4.8
- COMPOUND: "CS(=O)(=O)C1CCN(CCCn2c(CN3C(=O)C4(CC4)c4ccc(F)cc43)nc3cc(Cl)ccc32)CC1 [Compound 20]"
  RESULT: 1.6

* * *

Biological target: CYP2C8 (Homo sapiens)
Sequence (P10632 1-490): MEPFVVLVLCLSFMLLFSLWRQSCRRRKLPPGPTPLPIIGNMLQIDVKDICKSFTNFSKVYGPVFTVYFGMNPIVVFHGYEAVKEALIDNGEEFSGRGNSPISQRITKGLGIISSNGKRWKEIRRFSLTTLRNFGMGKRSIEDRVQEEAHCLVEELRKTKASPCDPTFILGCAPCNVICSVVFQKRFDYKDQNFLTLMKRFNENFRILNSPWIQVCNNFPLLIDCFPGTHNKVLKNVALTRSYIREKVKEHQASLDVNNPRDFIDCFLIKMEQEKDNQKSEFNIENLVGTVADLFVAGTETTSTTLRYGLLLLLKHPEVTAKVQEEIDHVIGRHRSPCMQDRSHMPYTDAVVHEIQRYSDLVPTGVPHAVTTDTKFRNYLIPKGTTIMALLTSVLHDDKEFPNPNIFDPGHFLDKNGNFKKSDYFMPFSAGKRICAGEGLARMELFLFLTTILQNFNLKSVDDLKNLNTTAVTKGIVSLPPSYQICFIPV
pIC50: −log10 of the molar value.
QUANTITY_NAME: pIC50

- COMPOUND_STRUCTURE: "CS(=O)(=O)N1CCC(n2c(CN3C(=O)C4(CC4)c4ccc(F)cc43)nc3cc(Cl)ccc32)CC1"
  RESULT: "< 4.60"

* * *

test: In vivo pharmacokinetics in the dog; parameters: species or system Beagle dogs; conditions: Beagle, plasma, 3 mg/kg PO
QUANTITY_NAME: Cmax (ng/mL)

- COMPOUND_STRUCTURE: "CS(=O)(=O)N1CCC(n2c(CN3C(=O)C4(CC4)c4ccc(F)cc43)nc3cc(Cl)ccc32)CC1"
  RESULT: 535

* * *

Protein target, amino acids: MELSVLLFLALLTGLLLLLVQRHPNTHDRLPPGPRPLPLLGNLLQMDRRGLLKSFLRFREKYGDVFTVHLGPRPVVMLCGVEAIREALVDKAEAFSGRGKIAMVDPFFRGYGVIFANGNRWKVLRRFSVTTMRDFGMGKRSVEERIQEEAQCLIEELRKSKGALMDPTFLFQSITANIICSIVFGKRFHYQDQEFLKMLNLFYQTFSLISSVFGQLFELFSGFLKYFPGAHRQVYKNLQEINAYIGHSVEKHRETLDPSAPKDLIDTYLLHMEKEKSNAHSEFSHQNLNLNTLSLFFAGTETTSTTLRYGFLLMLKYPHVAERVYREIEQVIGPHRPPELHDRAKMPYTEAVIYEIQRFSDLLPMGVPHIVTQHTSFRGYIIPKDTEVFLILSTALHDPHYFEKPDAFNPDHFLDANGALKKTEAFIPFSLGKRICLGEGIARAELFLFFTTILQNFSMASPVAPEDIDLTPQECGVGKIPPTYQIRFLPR

- COMPOUND: "CS(=O)(=O)N1CCC(n2c(CN3C(=O)C4(CC4)c4ccc(F)cc43)nc3cc(Cl)ccc32)CC1 [Compound 33]"
  IC50: "> 25 µM"
